All figures here come from paper PMC2920070.

So I've got a bunch of molecules here, and I need their IC50 values.
TESTED_ON: NR1/NR2D (Rattus norvegicus, UniProt P35439+Q62645)
Sequence (Q62645 28-1323, other chains not shown): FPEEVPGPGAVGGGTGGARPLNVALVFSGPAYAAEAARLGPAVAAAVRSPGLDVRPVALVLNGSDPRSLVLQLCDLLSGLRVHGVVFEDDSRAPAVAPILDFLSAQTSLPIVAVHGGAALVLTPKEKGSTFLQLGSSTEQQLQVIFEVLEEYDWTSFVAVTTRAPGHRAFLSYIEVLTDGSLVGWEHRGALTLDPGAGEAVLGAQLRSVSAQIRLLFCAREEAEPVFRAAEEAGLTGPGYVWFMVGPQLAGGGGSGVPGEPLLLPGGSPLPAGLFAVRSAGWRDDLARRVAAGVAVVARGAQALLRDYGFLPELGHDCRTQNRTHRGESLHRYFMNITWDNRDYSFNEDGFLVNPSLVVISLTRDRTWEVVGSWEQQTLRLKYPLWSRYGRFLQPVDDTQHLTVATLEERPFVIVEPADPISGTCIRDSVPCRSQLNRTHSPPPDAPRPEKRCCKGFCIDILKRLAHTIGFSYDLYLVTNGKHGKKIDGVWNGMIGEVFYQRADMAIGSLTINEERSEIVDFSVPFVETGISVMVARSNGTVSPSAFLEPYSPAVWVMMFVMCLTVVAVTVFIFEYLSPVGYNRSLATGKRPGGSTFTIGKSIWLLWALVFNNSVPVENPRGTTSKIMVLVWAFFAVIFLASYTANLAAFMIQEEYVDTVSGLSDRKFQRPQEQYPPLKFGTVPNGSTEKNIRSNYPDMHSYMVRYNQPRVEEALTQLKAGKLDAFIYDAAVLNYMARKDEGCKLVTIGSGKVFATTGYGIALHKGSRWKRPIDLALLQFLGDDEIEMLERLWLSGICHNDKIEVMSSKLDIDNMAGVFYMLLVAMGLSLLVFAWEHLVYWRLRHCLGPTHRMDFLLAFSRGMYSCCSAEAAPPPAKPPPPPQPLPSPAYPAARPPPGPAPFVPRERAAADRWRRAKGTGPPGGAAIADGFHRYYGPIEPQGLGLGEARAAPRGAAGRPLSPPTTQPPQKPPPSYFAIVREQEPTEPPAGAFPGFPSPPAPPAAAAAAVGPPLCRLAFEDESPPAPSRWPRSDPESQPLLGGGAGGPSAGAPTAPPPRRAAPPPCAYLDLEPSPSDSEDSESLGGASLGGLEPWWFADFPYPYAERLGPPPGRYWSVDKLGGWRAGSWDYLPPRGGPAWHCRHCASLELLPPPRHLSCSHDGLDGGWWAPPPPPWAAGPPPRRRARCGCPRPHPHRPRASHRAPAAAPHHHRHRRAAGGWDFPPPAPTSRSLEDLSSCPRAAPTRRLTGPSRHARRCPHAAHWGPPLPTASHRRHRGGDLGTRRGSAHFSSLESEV
PROCEDURE_TEXT: Two-electrode voltage-clamp, recombinant NR1/NR2D in Xenopus oocytes
Give bare numbers, in µM.

>  <MOLECULE>
COc1cccc(-n2c(/C=C/c3cccnc3)nc3ccc(I)cc3c2=O)c1 [Compound 90]

>  <MEASURED>
200

$$$$

Next:
Problem: State the measured IC50 (NR1/NR2D (Rattus norvegicus, UniProt P35439+Q62645)) of COc1ccc2nc(/C=C/c3ccc(OC(C)=O)c(OC(C)=O)c3)n(-c3ccc(C(=O)O)cc3)c(=O)c2c1 [Compound 64]
Result: 52

---

TESTED_ON: NR1/NR2D (Rattus norvegicus, UniProt P35439+Q62645)
PROCEDURE_TEXT: Two-electrode voltage-clamp, recombinant NR1/NR2D in Xenopus oocytes
Type: cell-based
ASSAY_CONDITIONS: selectivity ratio
PROPERTY_LABEL: GluR1/NR2D: (IC50 GluR1)/(IC50 NR2D)

// each listed molecule needs a value for GluR1/NR2D: (IC50 GluR1)/(IC50 NR2D)
1. O=C(O)c1ccc(-n2c(/C=C/c3ccc4ccccc4c3)nc3ccccc3c2=O)cc1 [Compound 82]
2. C=CCOc1ccc(/C=C/c2nc3ccccc3c(=O)n2-c2ccc(C(=O)O)cc2)cc1 [Compound 69]
3. O=C(O)c1ccc(-n2c(/C=C/c3ccc([N+](=O)[O-])cc3)nc3c(Cl)cc(Cl)cc3c2=O)cc1 [Compound 41]
4. O=C(O)c1ccc(-n2c(/C=C/c3ccc([N+](=O)[O-])cc3)nc3ccc(I)cc3c2=O)cc1 [Compound 72]

Result:
1. >50
2. >10
3. >50
4. >220

---

TESTED_ON: NR1/NR2D (Rattus norvegicus, UniProt P35439+Q62645)
PROCEDURE_TEXT: Two-electrode voltage-clamp, recombinant NR1/NR2D in Xenopus oocytes
Format: cell-based
ASSAY_CONDITIONS: selectivity ratio
So I've got a bunch of compounds here, and I need their NR2A/NR2D: (IC50 NR2A)/(IC50 NR2D) values.

// each listed compound needs a value for NR2A/NR2D: (IC50 NR2A)/(IC50 NR2D)
1. O=C(O)c1ccc(-n2c(/C=C/c3ccc([N+](=O)[O-])cc3)nc3c(Cl)cc(Cl)cc3c2=O)cc1
2. C=CCOc1ccc(/C=C/c2nc3ccccc3c(=O)n2-c2ccc(C(=O)O)cc2)cc1
3. COc1ccc2nc(/C=C/c3ccc(OC(C)=O)c(OC(C)=O)c3)n(-c3ccc(C(=O)O)cc3)c(=O)c2c1
4. O=C(O)c1ccc(-n2c(/C=C/c3ccccc3C(F)(F)F)nc3ccccc3c2=O)cc1

Result:
1: >50; 2: >10; 3: >6; 4: >10

Problem: Annotate the compound O=C(O)c1ccc(-n2c(/C=C/c3cccc([N+](=O)[O-])c3)nc3cccc(Cl)c3c2=O)cc1 with its measured NR2A/NR2D: (IC50 NR2A)/(IC50 NR2D).
Result: >20
